EXPERIMENTAL_TARGET: 5-hydroxytryptamine receptor 1F (Homo sapiens, UniProt P30939)
Sequence (P30939 whole entry): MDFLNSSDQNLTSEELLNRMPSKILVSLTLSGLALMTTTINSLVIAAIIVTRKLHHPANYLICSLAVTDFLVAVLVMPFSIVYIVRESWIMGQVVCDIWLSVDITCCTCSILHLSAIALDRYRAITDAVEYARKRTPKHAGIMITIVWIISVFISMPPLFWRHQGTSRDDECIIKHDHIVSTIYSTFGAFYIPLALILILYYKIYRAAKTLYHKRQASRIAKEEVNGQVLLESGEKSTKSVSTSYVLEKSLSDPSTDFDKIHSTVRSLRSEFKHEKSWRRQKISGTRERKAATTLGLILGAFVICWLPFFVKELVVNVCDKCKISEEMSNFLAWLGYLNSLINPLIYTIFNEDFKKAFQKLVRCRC
READOUT_NAME: log10 Ki (log10 of the value in nM)
Parameter value (number): base-10 log of Ki in nM.

Summary line: CN1CCC(c2c[nH]c3ccc(NC(=O)c4cccs4)nc23)CC1 , 5-hydroxytryptamine receptor 1F (Homo sapiens, UniProt P30939), reported log10 Ki = 0.85

Let me check: CN1CCC(c2c[nH]c3ccc(NC(=O)C(C)(C)C)nc23)CC1 , system 5-hydroxytryptamine receptor 1F (Homo sapiens, UniProt P30939), measured log10 Ki is 1.79

The reported log10 Ki value, 5-hydroxytryptamine receptor 1F (Homo sapiens, UniProt P30939), for CC(C)N1CCC(c2c[nH]c3ccc(NC(=O)c4ccc(F)cc4)nc23)CC1 reads 1.48

5-hydroxytryptamine receptor 1F (Homo sapiens, UniProt P30939) data for CN1CCC(c2c[nH]c3ccc(NC(=O)c4ccncc4)nc23)CC1 ; its log10 Ki: 0.92

Note to self: log10 Ki of CN1CCC(c2c[nH]c3ccc(NC(=O)c4ccc([N+](=O)[O-])cc4)nc23)CC1 with 5-hydroxytryptamine receptor 1F (Homo sapiens, UniProt P30939) was 0.89

# lookup: CN1CCC(c2c[nH]c3ccc(NC(=O)c4cccc(F)c4)nc23)CC1 on 5-hydroxytryptamine receptor 1F (Homo sapiens, UniProt P30939), log10 Ki = 1.04

The value of log10 Ki recorded for CCN1CC=C(c2c[nH]c3ccc(NC(C)=O)nc23)CC1 when tested on 5-hydroxytryptamine receptor 1F (Homo sapiens, UniProt P30939) reads 1.32

The measured log10 Ki that O=C(Nc1ccc2[nH]cc(C3CCNCC3)c2n1)c1ccc(F)cc1 showed for 5-hydroxytryptamine receptor 1F (Homo sapiens, UniProt P30939) is 0.98

Given the molecule CN1CCC(c2c[nH]c3ccc(NC(=O)c4ccoc4)nc23)CC1 and test system 5-hydroxytryptamine receptor 1F (Homo sapiens, UniProt P30939), the measured log10 Ki is 0.66

The reported 5-hydroxytryptamine receptor 1F (Homo sapiens, UniProt P30939) log10 Ki of CN1CCC(c2c[nH]c3cnc(NC(=O)c4ccc(F)cc4)cc23)CC1 is 1.11

The molecule O=C(Nc1ccc2[nH]cc(C3CCN(CCc4ccccc4)CC3)c2n1)c1ccc(F)cc1 , tested on 5-hydroxytryptamine receptor 1F (Homo sapiens, UniProt P30939), showed log10 Ki of 1.88

# CN1CCC(c2c[nH]c3ccc(NC(=O)c4ccccc4F)nc23)CC1 with 5-hydroxytryptamine receptor 1F (Homo sapiens, UniProt P30939): log10 Ki is 1.28

// log10 Ki (5-hydroxytryptamine receptor 1F (Homo sapiens, UniProt P30939)) for CN1CCC(c2c[nH]c3ccc(O)nc23)CC1 = 2.00

// assay 5-hydroxytryptamine receptor 1F (Homo sapiens, UniProt P30939), entry CN1CCC(c2c[nH]c3ccc(NS(C)(=O)=O)nc23)CC1 , log10 Ki value = 1.28

I looked up CN1CCC(c2c[nH]c3ccc(N)nc23)CC1 and its log10 Ki for 5-hydroxytryptamine receptor 1F (Homo sapiens, UniProt P30939) was 2.00

// log10 Ki (5-hydroxytryptamine receptor 1F (Homo sapiens, UniProt P30939)) for CN1CCC(c2c[nH]c3cnc(NC(=O)c4ccc(F)cc4)nc23)CC1 = 1.83

# lookup: CC(=O)Nc1cc2c(C3CCN(C)CC3)c[nH]c2cn1 on 5-hydroxytryptamine receptor 1F (Homo sapiens, UniProt P30939), log10 Ki = 2.32
